Data origin: paper PMC4604124

- methodNotes: Ascorbate oxidation assay (redox activity of iron complexes);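 also: 100 µM ascorbate with 10 µM FeCl3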
- Format: biochemical
- conditionContext: sheet IBE 3; time 20 minus time 0; mean (průměr)
valueType: Change of absorbance, odečet 0 (time 0 subtracted), čas 20, průměr
Please reply with the number alone, leaving off any unit.

See these solved cases before continuing.
>>> df
                                   molecule  measuredvalue
0            CCNC(=S)NN=C(c1ccccc1)c1ccccn1        -0.1775
1  CCNC(=O)NN=C(c1ccccc1)c1ccccn1 [E-Bp4eS, 2-benzoylpyridine 4-ethylsemicarbazone]         -0.076
2               CCN=CNN=C(c1ccccc1)c1ccccn1       -0.06757
3  O=C(O)CN(CCN(CC(=O)O)CC(=O)O)CC(=O)O [EDTA, reference compound]        -0.2896
4  CCNC(=O)NN=C(c1ccccc1)c1ccccn1 [Z-Bp4eS, 2-benzoylpyridine 4-ethylsemicarbazone]       -0.07371

Let us move to another entry and its Change of absorbance, odečet 0 (time 0 subtracted), čas 20, průměr.
# lookup: Change of absorbance, odečet 0 (time 0 subtracted), čas 20, průměr of CC(=O)N(O)CCCCCNC(=O)CCC(=O)N(O)CCCCCNC(=O)CCC(=O)N(O)CCCCCN [DFO, deferoxamine, reference compound]
-0.00588
